Assignment: determine reported growth for the given compounds.
Tested on: T-47D breast
Assay: NCI-60 one-dose screen, 48 h (100 = growth as untreated, 0 = no growth, -100 = all killed)
Settings: 10 µM
This is part of a sample that, as a whole, favours compounds with a hit. Of some 83,000 tested, about 20% had one in any assay. Active and inactive are the calls of the source. Rule for the calls: active = growth percent below 10; inactive = the rest.

Challenge: # lookup: growth of COc1ccc(C(=O)CSc2nc(-c3cc(OC)ccc3OC)cc(-c3ccc(OC)cc3)c2C#N)cc1
Response given: 85.7% (inactive)

Challenge: Now give it for COc1cc(C)ccc1Oc1nc(Nc2ccc(N3CCOCC3)cc2)ncc1NC(=O)Nc1cc(C(F)(F)F)cc(C(F)(F)F)c1 too.
Response given: 81.9% (inactive)

Challenge: Now give it for C#CCOc1c(OC)cc(C(=O)/C(C)=C/c2cccc(N=[N+]=[N-])c2)cc1OC too.
Response given: 44.3% (inactive)

Challenge: Now give it for NC1=NC(c2ccccc2)C2=C(N1)/C(=C/c1ccccc1)CCC2 (centres undefined) too.
Response given: 93.1% (inactive)

Challenge: Now give it for COc1cc2cc(Oc3ccc(NC(=O)Nc4ccc(Cl)c(Cl)c4)cc3)c(C)nc2cc1OC too.
Response given: 60.9% (inactive)

Challenge: Now give it for CCCCC(CC)CN=C(N)NC(N)=NCCCCCCN=C(N)NC(N)=NCC(CC)CCCC (centres undefined) too.
Response given: -54.3% (active)

Challenge: Now give it for CSc1ccc(-c2cc(-c3ccc(NC(=O)CCCN4CCCC4)cc3)nc(-c3ccc(NC(=O)CCCN4CCCC4)cc3)c2)cc1 too.
Response given: 102% (inactive)

Challenge: Now give it for C/C=C/C1=CN2C(=O)c3cc(OC4OC(C)C(NC)C(C)(O)C4O)c(C)c(O)c3N=C[C@@H]2C1 (some centres undefined) too.
Response given: -8.27% (active)

Challenge: Now give it for O=C(CCCSc1nc(-c2ccccc2)cc(-c2ccc(Cl)cc2)n1)NO too.
Response given: 23.3% (inactive)

----------
Tested on: COLO 205 colon
Assay: NCI-60 one-dose screen, 48 h (100 = growth as untreated, 0 = no growth, -100 = all killed)
Conditions: 10 µM
Compounds without any hit were thinned out: in the full panel of roughly 83,000, 20% have a hit.
Assignment: determine reported growth for the given compounds.
Reply with just the number (in %).

Challenge: # lookup: growth of CC[C@@H](C(=O)[C@H](C)[C@H](O)[C@@H](C)[C@H]1O[C@H]([C@@H](CC)C(=O)N(CC)CC)CC[C@H]1C)C1O[C@]2(C=C[C@@H](O)[C@]3(CC[C@@](C)([C@H]4CC[C@](O)(CC)[C@H](C)O4)O3)O2)[C@H](C)C[C@@H]1C (stereo partly drawn)
Response given: -20.2

Challenge: Now give it for O=C(CN1CCN(C(=O)c2ccccc2)CC1)Nc1ccccc1SCc1ccccc1 too.
Response given: 82.3

Challenge: Now give it for O=C(N/N=C/c1ccc([N+](=O)[O-])cc1)c1ccccc1Nc1cccc(C(F)(F)F)c1 too.
Response given: 131

Challenge: Now give it for CC(C)(C)c1nn(-c2ccccc2)c2c1CC1(CN2Cc2ccc(Cl)cc2)C(=O)c2ccccc2C1=O too.
Response given: 117

Challenge: Now give it for CCCCN1C(=O)CC(SC2CC(=O)N(CCCC)C2=O)C1=O (stereo not drawn) too.
Response given: 102

Challenge: Now give it for COc1cc2nc(SCC(=O)Nc3cc(OC)c(OC)c(OC)c3)n(Cc3ccccc3)c(=O)c2cc1OC too.
Response given: 96.2

Challenge: Now give it for CC(=O)N[C@H](C(=O)N[C@@H](CCCNC(=N)N)C(=O)N[C@@H](CCCCN)C(=O)N[C@@H](CCCNC(=N)N)C(=O)N[C@]1(C)CCC/C=C\CCC[C@@](C)(C(=O)N[C@@H](CC(C)C)C(=O)N[C@@H](CC(C)C)C(=O)N[C@@H](CCC(N)=O)C(=O)N[C@@H](CCC(=O)O)C(=O)N[C@@H](CCCNC(=N)N)C(=O)N[C@@H](CCC(=O)O)C(=O)N[C@@H](CC(C)C)C(=O)N[C@H](C(=O)N[C@@H](CCC(=O)O)C(N)=O)C(C)C)NC(=O)[C@H](CCCNC(=N)N)NC(=O)[C@H](CC(C)C)NC1=O)C(C)C too.
Response given: 102

Challenge: Now give it for CC(C)N(CCOc1cccc(-c2nc3sccn3c2-c2ccnc(S(C)(=O)=O)n2)c1)C(C)C too.
Response given: 97.6

Challenge: Now give it for O=C(CCn1cnc2c(cc(-c3ccccc3)n2-c2ccccc2)c1=O)Nc1ccc(F)cc1 too.
Response given: 103

Challenge: Now give it for CC(=O)C1CCC2C3CC=C4CC(SC(=N)N)CCC4(C)C3CCC12C (stereo not drawn) too.
Response given: -100

Challenge: Now give it for O=S(=O)(Oc1ccc(-c2ccc3sccc3c2)cc1)c1ccccc1 too.
Response given: 109

Challenge: Now give it for OCC1OC2C(NC(=S)N2c2ccccc2)C(O)C1O (stereo not drawn) too.
Response given: 105

Challenge: Now give it for COc1cc2cc(Oc3ccc(NC(=O)Nc4ccc(C(F)(F)F)cc4)cc3)c(C)nc2cc1OC too.
Response given: 40.4

Challenge: Now give it for COc1ccc(-c2nn(-c3cccc(Cl)c3)cc2-c2c(C#N)c(N)n(N)c(=O)c2C#N)cc1 too.
Response given: 85.3

Challenge: Now give it for CC(=O)Oc1cc(OC(C)=O)c2ccccc2c1OC(C)=O too.
Response given: 92.9

Challenge: Now give it for CCOC(=O)c1cc(C(=O)c2ccc(OC)c(OC)c2)n2ccncc12 too.
Response given: 115

Challenge: Now give it for O=C(O)c1ccc(-n2cc(CNc3ccc(Oc4ccccc4)cc3)c(-c3ccccc3)n2)cc1 too.
Response given: 101

Challenge: Now give it for Nc1nc(N)c(N)c(Nc2ccc(CCO)cc2)n1 too.
Response given: 95.5

Challenge: Now give it for CCOC(=O)c1cc(C(=O)c2ccc(OC)c(OC)c2)n2c1ccc1ccc3cccnc3c12 too.
Response given: -2.29

Challenge: Now give it for CC(=O)OC/C=C(/C)C[P+](c1ccccc1)(c1ccccc1)c1ccccc1 too.
Response given: 48.3

Challenge: Now give it for NC1=CC(=O)C(=O)c2cccnc21 too.
Response given: 98.7

Challenge: Now give it for COc1cc(C2C(C#N)=C(N)Oc3cc(O)ccc32)cc(OC)c1OC (stereo not drawn) too.
Response given: 8.35

Challenge: Now give it for O=S(=O)(O)c1cccc(Nc2ccc3ccccc3c2)c1 too.
Response given: 97.8

Challenge: Now give it for c1cnc2[nH]cc(-c3nc(-c4ccsc4)cs3)c2c1 too.
Response given: 117

Challenge: Now give it for CN(C)CCOc1ccccc1NC1=C(Cl)C(=O)C(Nc2ccccc2OCCN(C)C)=C(Cl)C1=O too.
Response given: -62

Challenge: Now give it for Cc1cc(CSc2ccccc2C(=O)N2CC=C(c3ccccc3)CC2)on1 too.
Response given: 107

Challenge: Now give it for CC[C@@H](C(=O)[C@@H](C)[C@@H](O)[C@H](C)[C@@H]1O[C@@H]([C@@H](CC)C(=O)N(CC)CC)CC[C@@H]1C)C1O[C@]2(C=CC(=O)[C@]3(CC[C@@](C)([C@H]4CC[C@](O)(CC)[C@H](C)O4)O3)O2)[C@H](C)C[C@@H]1C (stereo partly drawn) too.
Response given: 12.2

Challenge: Now give it for Oc1cccc(-c2nc3sccn3c2-c2ccncn2)c1 too.
Response given: 32.1

Challenge: Now give it for Cc1ccc(N=Nc2ccccc2)cc1 too.
Response given: 106

Challenge: Now give it for COc1ccc(-c2onc(N)c2-c2cc(OC)c3c(c2)OCO3)cc1 too.
Response given: 12.4

Challenge: Now give it for Oc1ccc(/C=N/N=C2c3ccccc3-c3ccccc32)c(O)c1 too.
Response given: 88

Challenge: Now give it for CCOC(=O)c1cc(C(=O)c2ccc(F)cc2F)n2ccccc12 too.
Response given: 110

Challenge: Now give it for CS(=O)(=O)c1nccc(-c2c(-c3ccc(OCCc4ccccc4)cc3)nc3sccn23)n1 too.
Response given: 115

Challenge: Now give it for CN1CCN(CCCn2c(=O)c3sc4ncccc4c3n3nnc(-c4ccccc4)c23)CC1 too.
Response given: -96.5

Challenge: Now give it for CN(C)c1ccc(/C=N/NC(=O)c2cccc3ccccc23)c(Cl)c1 too.
Response given: 19.7

Challenge: Now give it for COc1cc(-c2nn(-c3cccc(NC(=O)CCN4CCN(Cc5ccccc5)CC4)c3)cc2-c2ccncc2)ccc1Cl too.
Response given: -50.9

Challenge: Now give it for COc1cccc2ccc(CC(O)(c3ccccc3)c3ccccc3)nc12 too.
Response given: 95.4

Challenge: Now give it for CCCN1CN2C(=O)N3CN(CCC)CN4C(=S)N(C1)C2C34 (stereo not drawn) too.
Response given: 114
